This collection of values is drawn from PubChem BioAssay (NCI).

This listing pairs compounds with measured GI50.
- Tested on: OVCAR-8 ovarian
- run.description: NCI tumour cell line growth inhibition, 48 h
readout.label: GI50

                                   compound  assay_value
0  CCOc1cc(C(C)(C)C)ccc1C1=N[C@@](C)(c2ccc(Cl)cc2)[C@@](C)(c2ccc(Cl)cc2)N1C(=O)N1CCN(CCS(C)(=O)=O)CC1      4.44 µM
1  CC(C)(C)C(=O)OCc1nc2cc3c(cc2c(=O)[nH]1)CCC3=O     > 100 µM
2  CN1CCN(CCOc2ccc(-c3cnc4c(-c5ccc(F)cc5)cnn4c3)cc2)CC1      2.14 µM
3  COc1ccc2c(c1)CC[C@@H]1[C@@H]2CC[C@]2(C)C=C(/C=C/C(=O)c3ccccc3)C[C@@H]12      31.2 µM
4  C#CCN(Cc1nc2cc(C(F)(F)F)ccc2nc1-c1ccccc1)c1ccc(F)c(F)c1      31.6 µM
5  COc1cccc(C2=C(c3cn(C)c4cccc(OC)c34)C(=O)NC2=O)c1      18.5 µM
6            O=[N+]([O-])c1cc(F)c2cccnc2c1O      11.3 µM
7       Cc1nnc(-c2ccc(-c3nc4ccccc4o3)cc2)o1      85.6 µM
8  OC(COc1cccc2ccccc12)CN1CCN(c2ccccc2Cl)CC1 (centres undefined)      16.6 µM

----------
- System: SNB-19 CNS
- run.description: NCI tumour cell line growth inhibition, 48 h
This listing pairs compounds with measured TGI.

compound	TGI
CCCn1c(N)c(C(=O)CNc2ccc(I)cc2)c(=O)[nH]c1=O	> 59.5 µM
O=C(O)CC(O)(C(=O)O)C(O)C(=O)O (centres undefined)	> 1000 µM
O=[N+]([O-])c1ccc2ncccc2c1CCc1c([N+](=O)[O-])ccc2ncccc12	> 100 µM
CC1(C)[C@@H](OC(N)=O)C=C[C@]2(C=O)[C@H]3CC[C@]4(C)[C@@H](c5ccc(=O)oc5)[C@@H](Cl)C[C@]4(O)C3=CC[C@@H]12	0.0253 µM
N=C(N)SCCc1ccccn1	> 100 µM
Cc1ccc2c(c1)C(=O)c1c-2n(CCCN=[N+]=[N-])c(=O)c2cc([N+](=O)[O-])ccc12	> 100 µM
Nc1c(-c2nc3ccccc3[nH]2)sc(=S)n1-c1ccc(Cl)cc1	57.4 µM
COc1cccc(-c2cc(=O)c3cc(Cl)cnc3[nH]2)c1	> 77.2 µM
COP(C)(=O)C(Cc1c[nH]c2ccccc12)NC(=O)OCc1ccccc1 (centres undefined)	> 100 µM
CC1(C)c2ccccc2C(O)C12CCC(=O)CC2 (centres undefined)	> 100 µM
NS(=O)(=O)c1ccc(NC(=O)Nc2ccccc2F)cc1	> 100 µM
COC(=O)[C@]12CC[C@@H](C)[C@H](C)[C@@H]1C1=CC[C@@H]3[C@@]4(C)CC(=O)[C@H](OC(=O)c5ccco5)[C@@]5(C)COC(=C45)C[C@@]3(C)[C@]1(C)CC2	> 100 µM
C1CC[N-]CC1.CC(=N\O)/C(C)=N/O.CC(=N\O)/C(C)=N/O.[CH2-]CCN1CCOCC1.[Co+2]	> 100 µM
O=C(c1ccccc1)C1C(C(=O)c2ccccc2)C(c2ccccc2)N(c2ccccc2)C1c1ccccc1 (centres undefined)	> 100 µM
CCOc1cc(C(C)(C)C)ccc1C1=N[C@@](C)(c2ccc(Cl)cc2)[C@@](C)(c2ccc(Cl)cc2)N1C(=O)N1CCN(CCS(C)(=O)=O)CC1	23.2 µM
Oc1c(CN2CCOCC2)cc(COCc2ccccc2)c2cccnc12	> 100 µM
COc1cc(C=O)cc(C=Nc2ccc(S(N)(=O)=O)cc2)c1O	> 100 µM
Nc1c(C(=O)Nc2cccc(Br)c2)sc2nc3c(cc12)C(O)CCC3 (centres undefined)	53.9 µM
CC(=O)N1CCN(CCOc2ccc(C3CCN(C4=Nn5c(nnc5C(F)(F)F)CC4)CC3)cc2)CC1	> 100 µM
